experiment: Partition coefficient Log (D), 1-octanol / pH 7.4 buffer; type: physicochemical; conditions: internal control, octanol / pH 7.4 buffer; read-out: Typical Log D values

- Molecule: "C[C@]12CC[C@H]3[C@@H](CCC4=CC(=O)CC[C@@]43C)[C@@H]1CC[C@@H]2O [testosterone, Testosterone, reference compound]"
  logD: "3 to 3.3"

###

molecular target: GAL4 DBD-CfEcR(DEF)/VP16AD-MmRXRE (Choristoneura fumiferana); test: 13B3 Assay (CHO stable cell line, luciferase reporter); details: maximum fold induction at any concentration relative to that of GS-E ligand; CHO 13B3 cells
Value kind: 13B3 assay Rel Max FI

- Molecule: "CCc1c(OC)cccc1C(=O)NN(C(=O)c1cc(OC)c(O)c(OC)c1)C(C)(C)C"
  Measurement target: "GAL4 DBD-CfEcR(DEF)/VP16AD-MmRXRE (Choristoneura fumiferana)"
  Value kind: "13B3 assay Rel Max FI"
  Meas value: 1.172
- Molecule: "COc1cc(C(=O)N(NC(=O)c2ccc3c(c2C)OCCO3)C(C)(C)C)cc(OC)c1C"
  Measurement target: "GAL4 DBD-CfEcR(DEF)/VP16AD-MmRXRE (Choristoneura fumiferana)"
  Value kind: "13B3 assay Rel Max FI"
  Meas value: 1.002
- Molecule: "CCc1c(OC)cccc1C(=O)NN(C(=O)c1cc(C)cc(C=NNC(=O)C(N)=O)c1)C(C)(C)C"
  Measurement target: "GAL4 DBD-CfEcR(DEF)/VP16AD-MmRXRE (Choristoneura fumiferana)"
  Value kind: "13B3 assay Rel Max FI"
  Meas value: 0.734
- Molecule: "CCc1c(C(=O)NN(C(=O)c2cccc(C)c2)C(C)(C)C)ccc2c1OCCO2"
  Measurement target: "GAL4 DBD-CfEcR(DEF)/VP16AD-MmRXRE (Choristoneura fumiferana)"
  Value kind: "13B3 assay Rel Max FI"
  Meas value: 0.545
- Molecule: "Cc1c(C(=O)NN(C(=O)c2ccccc2[S+](C)[O-])C(C)(C)C)ccc2c1OCCO2 (stereo not drawn)"
  Measurement target: "GAL4 DBD-CfEcR(DEF)/VP16AD-MmRXRE (Choristoneura fumiferana)"
  Value kind: "13B3 assay Rel Max FI"
  Meas value: 0.000
- Molecule: "CCc1c(OC)cccc1C(=O)NN(C(=O)c1cc(C)ccc1[N+](=O)[O-])C(C)(C)C"
  Measurement target: "GAL4 DBD-CfEcR(DEF)/VP16AD-MmRXRE (Choristoneura fumiferana)"
  Value kind: "13B3 assay Rel Max FI"
  Meas value: 0.630
- Molecule: "CCCCC(CC)N(NC(=O)c1cccc(C)c1C)C(=O)c1ccccc1 (racemic)"
  Measurement target: "GAL4 DBD-CfEcR(DEF)/VP16AD-MmRXRE (Choristoneura fumiferana)"
  Value kind: "13B3 assay Rel Max FI"
  Meas value: 0.758
- Molecule: "CCOC(=O)C(C)(C)N(NC(=O)c1cccc(OC)c1CC)C(=O)c1cc(C)cc(C)c1"
  Measurement target: "GAL4 DBD-CfEcR(DEF)/VP16AD-MmRXRE (Choristoneura fumiferana)"
  Value kind: "13B3 assay Rel Max FI"
  Meas value: 0.186
- Molecule: "COc1cccc(C(=O)NN(C(=O)c2cc(C)cc(C)c2)C(C)(C)C)c1COC(C)=O"
  Measurement target: "GAL4 DBD-CfEcR(DEF)/VP16AD-MmRXRE (Choristoneura fumiferana)"
  Value kind: "13B3 assay Rel Max FI"
  Meas value: 0.08
- Molecule: "CCc1ccc(C(=O)NN(C(=O)c2cc(F)c(F)c(F)c2)C(C)(C)C)c(F)c1"
  Measurement target: "GAL4 DBD-CfEcR(DEF)/VP16AD-MmRXRE (Choristoneura fumiferana)"
  Value kind: "13B3 assay Rel Max FI"
  Meas value: 0.702
- Molecule: "Cc1c(C(=O)NN(C(=O)c2cc(F)c(F)c(F)c2F)C(C)(C)C)ccc2c1CCCO2"
  Measurement target: "GAL4 DBD-CfEcR(DEF)/VP16AD-MmRXRE (Choristoneura fumiferana)"
  Value kind: "13B3 assay Rel Max FI"
  Meas value: 0.648
- Molecule: "CCc1ccc(C(=O)NN(C(=O)c2cccc(C)c2)C(C)(C)C)c(F)c1"
  Measurement target: "GAL4 DBD-CfEcR(DEF)/VP16AD-MmRXRE (Choristoneura fumiferana)"
  Value kind: "13B3 assay Rel Max FI"
  Meas value: 0.875
- Molecule: "CCc1ccc(C(=O)NN(C(=O)c2cc(C)c(C)c(Cl)c2)C(C)(C)C)cc1"
  Measurement target: "GAL4 DBD-CfEcR(DEF)/VP16AD-MmRXRE (Choristoneura fumiferana)"
  Value kind: "13B3 assay Rel Max FI"
  Meas value: 0.837
- Molecule: "Cc1ccc([N+](=O)[O-])c(C(=O)N(NC(=O)c2ccc3c(c2C)OCCO3)C(C)(C)C)c1"
  Measurement target: "GAL4 DBD-CfEcR(DEF)/VP16AD-MmRXRE (Choristoneura fumiferana)"
  Value kind: "13B3 assay Rel Max FI"
  Meas value: 0.426
- Molecule: "Cc1c(C(=O)NN(C(=O)c2ccc(F)c(F)c2)C(C)(C)C)ccc2c1CCCO2"
  Measurement target: "GAL4 DBD-CfEcR(DEF)/VP16AD-MmRXRE (Choristoneura fumiferana)"
  Value kind: "13B3 assay Rel Max FI"
  Meas value: 12.104
- Molecule: "COc1cc(Cl)ccc1C(=O)N(NC(=O)c1cccc(OC)c1C)C(C)(C)C"
  Measurement target: "GAL4 DBD-CfEcR(DEF)/VP16AD-MmRXRE (Choristoneura fumiferana)"
  Value kind: "13B3 assay Rel Max FI"
  Meas value: 0.666
- Molecule: "COc1cc(C(=O)N(NC(=O)c2ccc3c(c2C)OCCO3)C(C)(C)C)cc(OC)c1O"
  Measurement target: "GAL4 DBD-CfEcR(DEF)/VP16AD-MmRXRE (Choristoneura fumiferana)"
  Value kind: "13B3 assay Rel Max FI"
  Meas value: 0.917
- Molecule: "CCc1c(OC)cccc1C(=O)NN(C(=O)c1cc(C)cc(C)c1)C(C)(C)C#N"
  Measurement target: "GAL4 DBD-CfEcR(DEF)/VP16AD-MmRXRE (Choristoneura fumiferana)"
  Value kind: "13B3 assay Rel Max FI"
  Meas value: 0.852
- Molecule: "CNCc1c(OC)cccc1C(=O)NN(C(=O)c1cc(C)cc(C)c1)C(C)(C)C"
  Measurement target: "GAL4 DBD-CfEcR(DEF)/VP16AD-MmRXRE (Choristoneura fumiferana)"
  Value kind: "13B3 assay Rel Max FI"
  Meas value: 0.20
- Molecule: "CCc1c(OC)cccc1C(=O)NN(C(=O)c1cc(OC)c(OC(C)=O)c(OC)c1)C(C)(C)C"
  Measurement target: "GAL4 DBD-CfEcR(DEF)/VP16AD-MmRXRE (Choristoneura fumiferana)"
  Value kind: "13B3 assay Rel Max FI"
  Meas value: 1.513
- Molecule: "Cc1cc(C)cc(C(=O)N(NC(=O)c2ccc3c(c2Cl)COCO3)C(C)(C)C)c1"
  Measurement target: "GAL4 DBD-CfEcR(DEF)/VP16AD-MmRXRE (Choristoneura fumiferana)"
  Value kind: "13B3 assay Rel Max FI"
  Meas value: 0.835
- Molecule: "CC(C)(C)N(NC(=O)c1ccc(Br)cc1)C(=O)c1cc(Cl)cc(Cl)c1"
  Measurement target: "GAL4 DBD-CfEcR(DEF)/VP16AD-MmRXRE (Choristoneura fumiferana)"
  Value kind: "13B3 assay Rel Max FI"
  Meas value: 0.336
- Molecule: "Cc1c(C(=O)NN(C(=O)c2cc(F)c(F)c(F)c2)C(C)(C)C)ccc2c1CCCO2"
  Measurement target: "GAL4 DBD-CfEcR(DEF)/VP16AD-MmRXRE (Choristoneura fumiferana)"
  Value kind: "13B3 assay Rel Max FI"
  Meas value: 0.641
- Molecule: "CCc1ccc(C(=O)NN(C(=O)c2cc(C)cc(C)c2)C(C)C(C)(C)C)cc1 (stereo not drawn)"
  Measurement target: "GAL4 DBD-CfEcR(DEF)/VP16AD-MmRXRE (Choristoneura fumiferana)"
  Value kind: "13B3 assay Rel Max FI"
  Meas value: 0.742
- Molecule: "COc1cccc(C(=O)NN(C(=O)c2cc(C)cc(C)c2)C(C)(C)C)c1CCl"
  Measurement target: "GAL4 DBD-CfEcR(DEF)/VP16AD-MmRXRE (Choristoneura fumiferana)"
  Value kind: "13B3 assay Rel Max FI"
  Meas value: 1.01
- Molecule: "CC(=O)c1cccc(C(=O)NN(C(=O)c2cc(C)cc(C)c2)C(C)(C)C)c1C"
  Measurement target: "GAL4 DBD-CfEcR(DEF)/VP16AD-MmRXRE (Choristoneura fumiferana)"
  Value kind: "13B3 assay Rel Max FI"
  Meas value: 0.843
- Molecule: "CCc1c(C(=O)NN(C(=O)c2ccc(Cl)cc2F)C(C)(C)C)ccc2c1OCCO2"
  Measurement target: "GAL4 DBD-CfEcR(DEF)/VP16AD-MmRXRE (Choristoneura fumiferana)"
  Value kind: "13B3 assay Rel Max FI"
  Meas value: 0.550
- Molecule: "COc1ccc(C(=O)NN(C(=O)c2cc(Cl)cc(Cl)c2)C(C)(C)C)cc1"
  Measurement target: "GAL4 DBD-CfEcR(DEF)/VP16AD-MmRXRE (Choristoneura fumiferana)"
  Value kind: "13B3 assay Rel Max FI"
  Meas value: 0.654
- Molecule: "COc1cccc(C(=O)NN(C(=O)c2cc(C)ccc2[N+](=O)[O-])C(C)(C)C)c1C"
  Measurement target: "GAL4 DBD-CfEcR(DEF)/VP16AD-MmRXRE (Choristoneura fumiferana)"
  Value kind: "13B3 assay Rel Max FI"
  Meas value: 0.773
- Molecule: "Cc1c(C(=O)NN(C(=O)c2cccc(F)c2)C(C)(C)C)ccc2c1CCCO2"
  Measurement target: "GAL4 DBD-CfEcR(DEF)/VP16AD-MmRXRE (Choristoneura fumiferana)"
  Value kind: "13B3 assay Rel Max FI"
  Meas value: 0.823
- Molecule: "COc1cccc(C(=O)NN(C(=O)c2cc(C)cc(C)c2)C(C)(C)C)c1CO"
  Measurement target: "GAL4 DBD-CfEcR(DEF)/VP16AD-MmRXRE (Choristoneura fumiferana)"
  Value kind: "13B3 assay Rel Max FI"
  Meas value: 1.44
- Molecule: "Cc1cc(C(=O)N(NC(=O)c2cccc(Cl)c2C)C(C)(C)C)ccc1Br"
  Measurement target: "GAL4 DBD-CfEcR(DEF)/VP16AD-MmRXRE (Choristoneura fumiferana)"
  Value kind: "13B3 assay Rel Max FI"
  Meas value: 0.002
- Molecule: "COc1cc(C)ccc1C(=O)N(NC(=O)c1cccc(OC)c1C)C(C)(C)C"
  Measurement target: "GAL4 DBD-CfEcR(DEF)/VP16AD-MmRXRE (Choristoneura fumiferana)"
  Value kind: "13B3 assay Rel Max FI"
  Meas value: 0.685
